Target: T1, human ANGPTL3 (human, UniProt Q9Y5C1 17-460)
T1 construct: Biotinylated in the ELISA assays; also called hANGPTL3; free ANGPTL3
T1 sequence: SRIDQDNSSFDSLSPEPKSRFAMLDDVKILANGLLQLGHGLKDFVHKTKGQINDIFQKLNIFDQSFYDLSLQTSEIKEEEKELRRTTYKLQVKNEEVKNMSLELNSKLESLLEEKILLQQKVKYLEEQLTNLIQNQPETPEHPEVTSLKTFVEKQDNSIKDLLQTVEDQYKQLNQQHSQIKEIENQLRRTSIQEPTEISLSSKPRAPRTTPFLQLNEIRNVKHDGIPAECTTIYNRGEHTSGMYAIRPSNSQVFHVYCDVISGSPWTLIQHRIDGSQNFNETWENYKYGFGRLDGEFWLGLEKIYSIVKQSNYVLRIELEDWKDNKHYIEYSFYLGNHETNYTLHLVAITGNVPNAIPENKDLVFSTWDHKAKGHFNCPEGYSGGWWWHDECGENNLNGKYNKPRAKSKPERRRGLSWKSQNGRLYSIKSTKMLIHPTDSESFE
Assay: ELISA; Ab captured by anti-human Fc; biotinylated antigen at 1.23 nM
quantity.kind: OD at 560 nm (OD 560 nm)
Use OD 560 nm as the unit, but write only the number.

Some binders with known OD at 560 nm results, for comparison:
- Ab with LC variant having a D31S mutation (SEQ ID NO:21) and a HC of SEQ ID NO:6 (antibody, human IgG4 S228P, kappa, F234A L235A, V domains shown, also called D31S Variant Ab; D31S Ab) VH: QVTLKESGPTLVKPTQTLTLTCTFSGFSLSISGVGVGWIRQPPGKALEWLALIYRNDDKRYSPSLKSRLTITKDTSKNQVVLTLTNMDPVDTATYYCARTYSSGWYGNWFDPWGQGTLVTVSS VL: DIVMTQTPLSLPVTPGEPASISCRSSQSLLSSDDGNTYLDWYLQKPGQSPQLLIYMLSYRASGVPDRFSGSGSGTDFTLKISRVEAEDVGIYYCMQRIEFPLTFGGGTKVEIKR: 0.059
- anti-ANGPTL3/8 complex Ab having a LC of SEQ ID NO:5 and a HC of SEQ ID NO:6 (antibody, human IgG4 S228P, kappa, F234A L235A, V domains shown, In the ELISA assays tested as IgG from CHO supernatants; also called the Ab) VH: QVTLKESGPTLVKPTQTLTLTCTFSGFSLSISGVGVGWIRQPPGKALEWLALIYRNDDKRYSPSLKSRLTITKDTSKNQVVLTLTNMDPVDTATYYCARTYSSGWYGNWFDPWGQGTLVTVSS VL: DIVMTQTPLSLPVTPGEPASISCRSSQSLLDSDDGNTYLDWYLQKPGQSPQLLIYMLSYRASGVPDRFSGSGSGTDFTLKISRVEAEDVGIYYCMQRIEFPLTFGGGTKVEIKR: 0.043
- Ab with LC variant having a E99Q mutation (SEQ ID NO:25) and a HC of SEQ ID NO:6 (antibody, human IgG4 S228P, kappa, F234A L235A, V domains shown, also called E99Q Variant Ab; E99Q Ab) VH: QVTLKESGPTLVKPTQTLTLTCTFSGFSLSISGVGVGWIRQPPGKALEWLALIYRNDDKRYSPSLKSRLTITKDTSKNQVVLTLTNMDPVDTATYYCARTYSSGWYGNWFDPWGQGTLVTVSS VL: DIVMTQTPLSLPVTPGEPASISCRSSQSLLDSDDGNTYLDWYLQKPGQSPQLLIYMLSYRASGVPDRFSGSGSGTDFTLKISRVEAEDVGIYYCMQRIQFPLTFGGGTKVEIKR: 0.059

Q: Would you mind telling me what OD at 560 nm value was observed for Ab with LC variant having a D33A mutation (SEQ ID NO:22) and a HC of SEQ ID NO:6 (antibody, human IgG4 S228P, kappa, F234A L235A, V domains shown, also called D33A Variant Ab; D33A Ab) VH: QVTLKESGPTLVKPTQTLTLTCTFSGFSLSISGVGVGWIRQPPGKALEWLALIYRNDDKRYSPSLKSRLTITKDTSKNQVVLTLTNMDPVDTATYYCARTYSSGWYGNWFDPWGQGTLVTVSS VL: DIVMTQTPLSLPVTPGEPASISCRSSQSLLDSADGNTYLDWYLQKPGQSPQLLIYMLSYRASGVPDRFSGSGSGTDFTLKISRVEAEDVGIYYCMQRIEFPLTFGGGTKVEIKR ?
A: 0.057
